// reported Ki for each item listed
Target Or System: hNav1.7 (Homo sapiens (Human), UniProt Q15858)
Sequence (Q15858 other isoform, or with tags, fused parts or gaps): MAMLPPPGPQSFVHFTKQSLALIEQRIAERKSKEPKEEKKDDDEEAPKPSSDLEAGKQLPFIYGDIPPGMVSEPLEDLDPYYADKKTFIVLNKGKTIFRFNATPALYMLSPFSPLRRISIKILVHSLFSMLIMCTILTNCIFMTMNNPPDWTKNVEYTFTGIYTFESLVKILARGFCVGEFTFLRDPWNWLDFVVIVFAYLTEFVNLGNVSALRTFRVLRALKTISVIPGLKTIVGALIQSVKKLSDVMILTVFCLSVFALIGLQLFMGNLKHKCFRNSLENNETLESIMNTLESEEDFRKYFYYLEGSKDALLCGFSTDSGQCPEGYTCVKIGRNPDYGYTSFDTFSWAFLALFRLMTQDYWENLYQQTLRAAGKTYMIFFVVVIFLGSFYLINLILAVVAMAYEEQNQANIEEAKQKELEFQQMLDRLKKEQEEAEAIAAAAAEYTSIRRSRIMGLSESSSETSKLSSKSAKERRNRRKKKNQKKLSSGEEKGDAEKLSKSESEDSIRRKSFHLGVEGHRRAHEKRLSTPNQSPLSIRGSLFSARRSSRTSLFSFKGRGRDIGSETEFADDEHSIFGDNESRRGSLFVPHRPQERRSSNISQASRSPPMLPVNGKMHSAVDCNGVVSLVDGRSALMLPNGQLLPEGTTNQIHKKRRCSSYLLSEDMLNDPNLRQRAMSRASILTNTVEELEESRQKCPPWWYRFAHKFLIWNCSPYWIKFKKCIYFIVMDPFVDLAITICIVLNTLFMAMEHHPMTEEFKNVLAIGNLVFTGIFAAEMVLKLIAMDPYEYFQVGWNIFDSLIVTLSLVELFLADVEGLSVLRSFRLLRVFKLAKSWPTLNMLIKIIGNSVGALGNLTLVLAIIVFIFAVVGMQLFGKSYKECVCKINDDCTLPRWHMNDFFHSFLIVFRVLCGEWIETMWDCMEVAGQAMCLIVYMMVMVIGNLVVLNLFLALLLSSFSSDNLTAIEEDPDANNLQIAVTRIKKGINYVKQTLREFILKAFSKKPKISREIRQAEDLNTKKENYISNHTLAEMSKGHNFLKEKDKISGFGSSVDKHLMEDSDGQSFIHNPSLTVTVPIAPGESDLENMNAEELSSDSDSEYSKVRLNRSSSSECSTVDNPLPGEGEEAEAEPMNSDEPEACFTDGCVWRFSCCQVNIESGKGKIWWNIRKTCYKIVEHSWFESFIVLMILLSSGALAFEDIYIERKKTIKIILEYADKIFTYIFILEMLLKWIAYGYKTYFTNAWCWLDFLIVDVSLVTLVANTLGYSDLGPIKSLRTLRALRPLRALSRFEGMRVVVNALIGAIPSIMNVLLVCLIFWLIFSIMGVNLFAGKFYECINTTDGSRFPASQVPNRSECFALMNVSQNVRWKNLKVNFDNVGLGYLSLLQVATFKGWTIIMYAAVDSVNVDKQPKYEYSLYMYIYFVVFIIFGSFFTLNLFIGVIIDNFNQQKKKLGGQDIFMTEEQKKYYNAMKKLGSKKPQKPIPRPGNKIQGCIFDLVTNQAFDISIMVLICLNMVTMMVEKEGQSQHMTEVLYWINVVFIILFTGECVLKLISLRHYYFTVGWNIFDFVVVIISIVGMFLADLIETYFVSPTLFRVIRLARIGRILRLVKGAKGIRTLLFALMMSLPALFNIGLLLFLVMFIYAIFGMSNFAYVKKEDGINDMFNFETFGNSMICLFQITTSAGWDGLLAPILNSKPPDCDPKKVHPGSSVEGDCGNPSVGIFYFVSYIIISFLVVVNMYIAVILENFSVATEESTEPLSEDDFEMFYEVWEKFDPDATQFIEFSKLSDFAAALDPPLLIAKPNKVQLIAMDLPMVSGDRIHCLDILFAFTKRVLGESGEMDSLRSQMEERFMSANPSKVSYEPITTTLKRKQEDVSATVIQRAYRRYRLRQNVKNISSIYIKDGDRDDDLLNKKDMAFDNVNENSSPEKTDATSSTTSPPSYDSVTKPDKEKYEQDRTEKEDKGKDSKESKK
Experiment Description: Electrophysiology (EP) assay, whole-cell patch clamp
Format: cell-based
Condition Parameters: whole-cell patch clamp, hNav1.7 expressing HEK-293 cells; read-out: EP Nav1.7 Ki

# Molecule, Assay Value
measured = [
    ("N#Cc1cc(Oc2ccc(-n3cc(C(O)C(=O)NC[C@H](O)CO)c4ccccc43)cc2)ccc1C(F)(F)F (stereo partly shown)", "2670 nM"),
]

Identify measured Ki corresponding to NC(=O)C(N)Cc1cn(-c2ccc(Oc3ccccc3)cc2)c2ccccc12 (stereo not shown)
40 nM

Quote Ki reported for N#Cc1ccc(Oc2ccc(-n3cc(C[C@H](O)CO)c4ncccc43)cc2)cc1 please.
170 nM

Indicate the recorded Ki value for this molecule: NC(=O)C(N)Cc1c[nH]c2ccc(-c3ccc(Oc4ccccc4)cc3)cc12 (stereo not shown)
670 nM

* * *

Listing of recorded IC50 by entry.
Target Or System: human Nav1.7 (Homo sapiens (Human))
Experiment Description: FLIPR or FLIPR TETRA sodium dye assay with KCl and test article pre-incubation
Assay type: cell-based
Condition Parameters: sodium dye assay with KCl; recombinant human Nav1.7 in HEK293 cells; value ± SEM
The reply should contain only the number, in µM.

Let me know recorded IC50 for NC(=O)C(N)Cc1cn(-c2ccc(Oc3ccccc3)cc2)c2ccccc12 (centres unmarked) , thanks.
0.278

For the compound CCOC(=O)C(N)Cc1c[nH]c2ccc(-c3ccc(Oc4ccccc4)cc3)cc12 (centres unmarked) , give its measured IC50 value.
0.481

Tell me its IC50 given OC[C@@H](O)Cc1cn(-c2ccc(Oc3ccc(C(F)(F)F)cn3)cc2)c2ccccc12 as the entry.
0.257

Give the reported IC50 for this compound. OC[C@@H](O)Cc1cn(-c2ccc(Oc3ccc(C(F)(F)F)cc3)cc2)c2ccccc12
0.524

Please report the measured IC50 for CN(c1ccc(F)cc1)S(=O)(=O)c1ccc(-n2cc(C[C@H](O)CO)c3ccccc32)cc1
0.865

* * *

pKi values, listed per item
Target Or System: hNav1.7 (Homo sapiens (Human))
Experiment Description: Electrophysiology (EP) assay, whole-cell patch clamp
Type: cell-based
Condition Parameters: read-out: EP Nav1.7 Ki
The meaning of pKi here: minus log10 of the concentration in molar units.

Check the records and state pKi for NC(CO)Cc1c[nH]c2c(-c3ccc(Oc4ccccc4)cc3)cccc12 (stereo not drawn) [Compound 22]
6.08

Name the recorded pKi of the molecule listed here: NC(=O)c1nn(-c2ccc(Oc3ccc(C(F)(F)F)cn3)cc2)c2ccccc12 [Compound 155]
6.60

Quickly give me recorded pKi for NC(CO)Cc1c[nH]c2ccc(-c3ccc(Oc4ccccc4)cc3)cc12 (stereo not drawn) [Compound 10]
6.44

* * *

Target Or System: UniProtKB Q15858
Experiment Description: FLIPR or FLIPR TETRA sodium dye assay with KCl and test article pre-incubation
Assay type: cell-based
Condition Parameters: read-out: FLIPR Nav1.7 IC50 (μM) ± SEM
Procedure: For dominant selection of the Nav1.7-expressing clones, the expression plasmid co-expressed the neomycin resistance gene. […] Recombinant beta and gamma subunits were not introduced into this cell line. […] Test Compounds: Test compounds were dissolved in DMSO to yield 10 mM stock solutions. […] Compound dilutions were added during the dye-loading and pre-stimulation step, and then again during the fluorescence assay, early in the kinetic read. […]
Test Readout: log10 IC50 (log10 of the value in µM)
In plain terms, each number is the log10 of measured IC50 in µM.

# Compound, Assay Value
measured = [
    ("CCN(CC)CCn1ccc2cc(-c3ccc(Oc4ccc(F)cc4)cc3)ccc21", -0.05),
    ("N#Cc1ccc(Oc2ccc(-n3cc(C(O)C(N)=O)c4ccccc43)cc2)cc1C(F)(F)F (centres unmarked)", -0.38),
]

# return recorded log10 IC50 for entry N#Cc1ccc(Oc2ccc(-n3cc(C[C@@H](O)CO)c4ccccc43)cc2)cc1
-0.32

Kindly indicate its recorded log10 IC50. Item: N#Cc1cc(Oc2ccc(-n3cc(C(O)CO)c4ccccc43)cc2)ccc1C(F)(F)F (centres unmarked)
-0.59

* * *

IC50 by entry:
Target Or System: human Nav1.7 (Homo sapiens (Human), UniProt Q15858)
Sequence (Q15858 other isoform, or with tags, fused parts or gaps): as above
Experiment Description: FLIPR or FLIPR TETRA sodium dye assay with KCl and test article pre-incubation
Format: cell-based
Condition Parameters: read-out: FLIPR Nav1.7 IC50 (μM) ± SEM
The answer is to be given in µM; state only the numeric part.

# Compound, Test Readout, Assay Value
data = [
    ("NC(CO)Cc1c[nH]c2c(-c3ccc(Oc4ccccc4)cc3)cccc12 (stereo not shown)", "IC50", 0.151),
    ("NC(=O)c1nn(-c2ccc(Oc3ccc(C(F)(F)F)cn3)cc2)c2ccccc12", "IC50", 0.362),
    ("CCN(CC)CCn1cc(C(=O)C(N)=O)c2cc(-c3ccc(Oc4ccc(F)cc4)cc3)ccc21", "IC50", 1.03),
]

Please report the measured IC50 for N#Cc1ccc(Oc2ccc(-n3cc(C[C@H](O)CO)c4ccccc43)cc2)cc1
0.501

* * *

compounds and their reported log10 IC50
Target Or System: human Nav1.7 (Homo sapiens (Human), UniProt Q15858)
Experiment Description: FLIPR or FLIPR TETRA sodium dye assay with KCl and test article pre-incubation
Format: cell-based
Condition Parameters: sodium dye assay with KCl; recombinant human Nav1.7 in HEK293 cells; value ± SEM
Remember, log10 of IC50, in µM.

# Compound, log10 IC50
rows = [
    ("N#Cc1cc(Oc2ccc(-n3cc(C(O)C(N)=O)c4ccccc43)cc2)ccc1C(F)(F)F (centres unmarked) [Compound 60]", -0.65),
    ("N#Cc1ccc2c(c1)c(C[C@H](O)CO)cn2-c1ccc(Oc2ccc(F)cc2)cc1 [Compound 110]", 0.39),
    ("CCN(CC)CCn1cc(C(O)C(N)=O)c2cc(-c3ccc(Oc4ccc(F)cc4)cc3)ccc21 (centres unmarked) [Compound 179]", -0.04),
    ("N#Cc1cccc2c1c(C[C@H](O)CO)cn2-c1ccc(Oc2ccc(F)cc2)cc1 [Compound 120]", -0.58),
    ("OC[C@@H](O)Cc1cn(C[C@H](O)CO)c2ccc(-c3ccc(Oc4ccc(F)cc4)cc3)cc12 [Compound 74]", -0.30),
    ("NC(CO)Cc1cn(-c2ccc(Oc3ccccc3)cc2)c2ccccc12 (centres unmarked) [Compound 34]", -0.41),
    ("CN(C)CCc1cn(-c2ccc(Oc3ccccc3)cc2)c2ccc(C[C@H](N)CO)cc12 [Compound 48]", 0.58),
]

For the compound CS(=O)(=O)NC(Cc1cn(-c2ccc(Oc3ccccc3)cc2)c2ccccc12)C(N)=O (centres unmarked) [Compound 39] , report log10 IC50.
0.00

* * *

Target Or System: human Nav1.7 (Homo sapiens (Human), UniProt Q15858)
Experiment Description: FLIPR or FLIPR TETRA sodium dye assay with KCl and test article pre-incubation
Format: cell-based
Condition Parameters: sodium dye assay with KCl; recombinant human Nav1.7 in HEK293 cells; value ± SEM
Mark true only for IC50 values smaller than 1 µM; exact matches and larger values are false.

Known results for compounds:
# Compound, Category
measured = [
    ("OCCn1cc(C[C@H](O)CO)c2cc(-c3ccc(Oc4ccc(F)cc4)cc3)ccc21 [Compound 200]", "true"),
    ("COC(=O)c1ccc2c(C(O)C(N)=O)cn(-c3ccc(Oc4ccc(C(F)(F)F)c(C#N)c4)cc3)c2c1 (stereo not shown) [Compound 65]", "true"),
    ("NC(=O)C(N)Cc1c[nH]c2ccc(-c3ccc(Oc4ccccc4)cc3)cc12 (stereo not shown) [Compound 8]", "true"),
    ("N#Cc1cc(Oc2ccc(-n3cc(C[C@H](O)CO)c4ccccc43)cc2)ccc1C(F)(F)F [Compound 54]", "true"),
    ("O=C(O)c1cccc2c1c(C[C@H](O)CO)cn2-c1ccc(Oc2ccc(F)cc2)cc1 [Compound 129]", "false"),
]

Answer whether the compound N[C@H](CO)Cc1cn(-c2ccc(Oc3ccc(C(F)(F)F)cn3)cc2)c2ccccc12 [Compound 196] has IC50 strictly less than 1 µM
true

Please let me know if N#Cc1ccc(Oc2ccc(-n3cc(C[C@H](O)CO)c4ccncc43)cc2)cc1 [Compound 170] shows IC50 below 1 µM.
false

Lab note: confirm whether the reported IC50 for this compound is below 1 µM, equality not counting. compound: N#Cc1ccc(Oc2ccc(-n3cc(C[C@H](O)CO)c4ncccc43)cc2)cc1 [Compound 175]
true

* * *

Target Or System: hNav1.7 (Homo sapiens (Human))
Experiment Description: Electrophysiology (EP) assay, whole-cell patch clamp
Type: cell-based
Condition Parameters: whole-cell patch clamp, hNav1.7 expressing HEK-293 cells; read-out: EP Nav1.7 Ki
Test Readout: pKi
Value format note: pKi is -log10 of concentration (mol/L); just state the number.

# Compound, Test Readout, Assay Value
rows = [
    ("N#Cc1cc(Oc2ccc(-n3cc(C(O)C(N)=O)c4ccccc43)cc2)ccc1C(F)(F)F (stereo not drawn) [Compound 60]", "pKi", 6.40),
]

Find the measured pKi of COC(=O)c1ccc2c(C(O)C(N)=O)cn(-c3ccc(Oc4ccc(C(F)(F)F)c(C#N)c4)cc3)c2c1 (stereo not drawn) [Compound 65] and report it.
5.72

Answer with the recorded pKi for the compound listed here: NC(CO)Cc1cn(-c2ccc(Oc3ccccc3)cc2)c2ccccc12 (stereo not drawn) [Compound 34]
6.59

Kindly indicate its recorded pKi. Item: N#Cc1cc(Oc2ccc(-n3cc(C[C@H](N)CO)c4ccccc43)cc2)ccc1C(F)(F)F [Compound 47]
6.80

Give the value of pKi reported for the following: CCN(CC)CCn1cc(C(O)C(N)=O)c2cc(-c3ccc(Oc4ccc(F)cc4)cc3)ccc21 (stereo not drawn) [Compound 179]
6.57

Please look at this compound and report its pKi: NC(=O)c1cccc2c1c(C[C@H](O)CO)cn2-c1ccc(Oc2ccc(F)cc2)cc1 [Compound 122]
6.52

Source of measurements: patent US9212139B2
